Molecular target: Prothrombin (Bos taurus, UniProt P00735)
Assay: Inhibition of plasma fibrin clot formation by thrombin in vitro.
pIC50: −log10 of the molar value. Square brackets hold non-standard residues; d marks the D form. Peptide text beside a SMILES is read from it. sY = N[C@@H](Cc1ccc(OS(=O)(=O)O)cc1)C(=O)O
MEASURE: pIC50

>>> test_result("CC[C@H](C)[C@H](NC(=O)[C@H](CCC(=O)O)NC(=O)[C@H](CCC(=O)O)NC(=O)[C@H](CC(C)C)NC(=O)[C@@H](N)CC(=O)O)C(=O)N1CCC[C@H]1C(=O)N[C@@H](CCC(=O)O)C(=O)N[C@@H](CCC(=O)O)C(=O)N[C@@H](Cc1ccc(OS(=O)(=O)O)cc1)C(=O)N[C@@H](CC(C)C)C(=O)N[C@@H](CCC(N)=O)C(=O)O (H-DLEEIPEE[sY]LQ-OH)")
"< 3.70"

====

Target: Prothrombin (Bos taurus)
Assay: Inhibition of plasma fibrin clot formation by thrombin in vitro.
Square brackets hold non-standard residues; d marks the D form. Peptide text beside a SMILES is read from it. sY = N[C@@H](Cc1ccc(OS(=O)(=O)O)cc1)C(=O)O
We begin with a simple list: items and their reported IC50.
MEASURE: IC50 (µM)

>>> test_result("CC[C@H](C)[C@H](NC(=O)[C@H](CCC(=O)O)NC(=O)[C@H](CCC(=O)O)NC(=O)[C@H](Cc1ccccc1)NC(=O)[C@@H](N)CC(=O)O)C(=O)N1CCC[C@H]1C(=O)N[C@@H](CCC(=O)O)C(=O)N[C@@H](CCC(=O)O)C(=O)N[C@@H](C)C(=O)N[C@@H](CC(C)C)C(=O)N[C@@H](CCC(N)=O)C(=O)O (H-DFEEIPEEALQ-OH)")
13.6
>>> test_result("CC[C@H](C)[C@H](NC(=O)[C@H](CCC(=O)O)NC(=O)[C@H](CCC(=O)O)NC(=O)[C@H](Cc1ccccc1)NC(=O)[C@@H](N)CC(=O)O)C(=O)N1CCC[C@H]1C(=O)N[C@@H](CCC(=O)O)C(=O)N[C@@H](C)C(=O)N[C@@H](Cc1ccc(OS(=O)(=O)O)cc1)C(=O)N[C@@H](CC(C)C)C(=O)N[C@@H](CCC(N)=O)C(=O)O (H-DFEEIPEA[sY]LQ-OH)")
42.8
>>> test_result("CC[C@H](C)[C@H](NC(=O)[C@H](C)NC(=O)[C@H](CCC(=O)O)NC(=O)[C@H](Cc1ccccc1)NC(=O)[C@@H](N)CC(=O)O)C(=O)N1CCC[C@H]1C(=O)N[C@@H](CCC(=O)O)C(=O)N[C@@H](CCC(=O)O)C(=O)N[C@@H](Cc1ccc(OS(=O)(=O)O)cc1)C(=O)N[C@@H](CC(C)C)C(=O)N[C@@H](CCC(N)=O)C(=O)O (H-DFEAIPEE[sY]LQ-OH)")
13.3

====

Biological target: UniProt:P00735
Experiment: Relative potency for fibrin clot inhibition compared to hirudin55-65.
Assay type: functional
Parameters: unit not given here
Square brackets hold non-standard residues; d marks the D form. Peptide text beside a SMILES is read from it. sY = N[C@@H](Cc1ccc(OS(=O)(=O)O)cc1)C(=O)O
MEASURE: Relative potency

>>> test_result("CC[C@H](C)[C@H](NC(=O)[C@H](CCC(=O)O)NC(=O)[C@H](CCC(=O)O)NC(=O)[C@H](Cc1ccccc1)NC(=O)[C@H](CC(=O)O)NC(=O)CN)C(=O)N[C@H](C)C(=O)N[C@@H](CCC(=O)O)C(=O)N[C@@H](CCC(=O)O)C(=O)N[C@@H](Cc1ccc(OS(=O)(=O)O)cc1)C(=O)N[C@@H](CC(C)C)C(=O)N[C@@H](CCC(N)=O)C(=O)O")
26
>>> test_result("CC(C)C[C@H](NC(=O)[C@H](Cc1ccc(OS(=O)(=O)O)cc1)NC(=O)[C@H](CCC(=O)O)NC(=O)[C@H](CCC(=O)O)NC(=O)[C@@H]1CCCN1C(=O)[C@H](CC(C)C)NC(=O)[C@H](CCC(=O)O)NC(=O)[C@H](CCC(=O)O)NC(=O)[C@H](Cc1ccccc1)NC(=O)[C@H](CC(=O)O)NC(=O)CN)C(=O)N[C@@H](CCC(N)=O)C(=O)O (H-GDFEELPEE[sY]LQ-OH)")
86
>>> test_result("CC[C@H](C)[C@H](NC(=O)[C@H](CCC(=O)O)NC(=O)[C@H](CCC(=O)O)NC(=O)[C@H](Cc1ccc(O)cc1)NC(=O)[C@H](CC(=O)O)NC(=O)CN)C(=O)N1CCC[C@H]1C(=O)N[C@@H](CCC(=O)O)C(=O)N[C@@H](CCC(=O)O)C(=O)N[C@@H](Cc1ccc(OS(=O)(=O)O)cc1)C(=O)N[C@@H](CC(C)C)C(=O)N[C@@H](CCC(N)=O)C(=O)O (H-GDYEEIPEE[sY]LQ-OH)")
215

====

Molecular target: UniProtKB P00735
Assay: Inhibition of plasma fibrin clot formation by thrombin in vitro.
Square brackets hold non-standard residues; d marks the D form. Peptide text beside a SMILES is read from it. sY = N[C@@H](Cc1ccc(OS(=O)(=O)O)cc1)C(=O)O
We begin with a simple list: items and their reported IC50.
MEASURE: IC50

>>> test_result("CC[C@H](C)[C@H](NC(=O)[C@H](CCC(=O)O)NC(=O)[C@H](CCC(=O)O)NC(=O)[C@H](CCC(=O)O)NC(=O)[C@@H](N)CC(=O)O)C(=O)N1CCC[C@H]1C(=O)N[C@@H](CCC(=O)O)C(=O)N[C@@H](CCC(=O)O)C(=O)N[C@@H](Cc1ccc(OS(=O)(=O)O)cc1)C(=O)N[C@@H](CC(C)C)C(=O)N[C@@H](CCC(N)=O)C(=O)O (H-DEEEIPEE[sY]LQ-OH)")
"> 200 µM"
>>> test_result("CC[C@H](C)[C@H](NC(=O)[C@H](CCC(=O)O)NC(=O)[C@H](C)NC(=O)[C@H](Cc1ccccc1)NC(=O)[C@@H](N)CC(=O)O)C(=O)N1CCC[C@H]1C(=O)N[C@@H](CCC(=O)O)C(=O)N[C@@H](CCC(=O)O)C(=O)N[C@@H](Cc1ccc(OS(=O)(=O)O)cc1)C(=O)N[C@@H](CC(C)C)C(=O)N[C@@H](CCC(N)=O)C(=O)O (H-DFAEIPEE[sY]LQ-OH)")
"> 200 µM"
>>> test_result("CC[C@H](C)[C@H](NC(=O)[C@H](CCC(=O)O)NC(=O)[C@H](CCC(=O)O)NC(=O)[C@H](Cc1ccccc1)NC(=O)[C@H](CC(=O)O)NC(=O)CN)C(=O)N[C@H](C)C(=O)N[C@@H](CCC(=O)O)C(=O)N[C@@H](CCC(=O)O)C(=O)N[C@@H](Cc1ccc(OS(=O)(=O)O)cc1)C(=O)N[C@@H](CC(C)C)C(=O)N[C@@H](CCC(N)=O)C(=O)O")
"27 µM"
